B1: PPEF2 (parent)
chain: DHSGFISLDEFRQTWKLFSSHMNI

Variants of: B1
Test: protein stability index of a GFP-peptide fusion (GPS, HEK-293T) (PSI 1-6); higher = more stable;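 further: lentivirally expressed fusions sorted by FACS into six bins by GFP to DsRed ratio, PSI derived from sequencing read proportions per bin multiplied by bin number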
Conditions: c terminus: a fixed tail appended
endpoint_name: protein stability index

mutation_string=H2R endpoint_name="protein stability index" val=1.34
mutation_string=S7T endpoint_name="protein stability index" val=2.04
mutation_string=H21I endpoint_name="protein stability index" val=2.54
mutation_string=S20I endpoint_name="protein stability index" val=2.75
mutation_string=F18I endpoint_name="protein stability index" val=2.51
mutation_string=F11I endpoint_name="protein stability index" val=1.79
mutation_string=G4A endpoint_name="protein stability index" val=2.89
mutation_string=S7C endpoint_name="protein stability index" val=2.37
mutation_string=L17H endpoint_name="protein stability index" val=1.66
mutation_string=Q13F endpoint_name="protein stability index" val=3.91
mutation_string=L8K endpoint_name="protein stability index" val=1.97
mutation_string=F5D endpoint_name="protein stability index" val=1.41
mutation_string=F18H endpoint_name="protein stability index" val=1.55
mutation_string=D9E endpoint_name="protein stability index" val=2.29
mutation_string=E10R endpoint_name="protein stability index" val=1.6
mutation_string=S19R endpoint_name="protein stability index" val=1.7
mutation_string=L8G endpoint_name="protein stability index" val=2.13
mutation_string=D1C endpoint_name="protein stability index" val=2.13
mutation_string=E10L endpoint_name="protein stability index" val=2.49
mutation_string=M22K endpoint_name="protein stability index" val=2.1
mutation_string=K16H endpoint_name="protein stability index" val=1.74
mutation_string=R12N endpoint_name="protein stability index" val=1.81
mutation_string=K16P endpoint_name="protein stability index" val=2.07
mutation_string=G4Y endpoint_name="protein stability index" val=2.27
mutation_string=S19P endpoint_name="protein stability index" val=1.82
mutation_string=L8Y endpoint_name="protein stability index" val=1.87
mutation_string=S19G endpoint_name="protein stability index" val=1.81
mutation_string=S3T endpoint_name="protein stability index" val=2.62
mutation_string=F11Y endpoint_name="protein stability index" val=2.19
mutation_string=L8R endpoint_name="protein stability index" val=1.93
mutation_string=G4V endpoint_name="protein stability index" val=3.22
mutation_string=F5N endpoint_name="protein stability index" val=2.13
mutation_string=H2Y endpoint_name="protein stability index" val=2.11
mutation_string=N23K endpoint_name="protein stability index" val=1.96
mutation_string=I24P endpoint_name="protein stability index" val=1.87
mutation_string=S3H endpoint_name="protein stability index" val=1.69
mutation_string=F18T endpoint_name="protein stability index" val=1.82
mutation_string=D9I endpoint_name="protein stability index" val=3.32
mutation_string=K16T endpoint_name="protein stability index" val=3.38
mutation_string=I24R endpoint_name="protein stability index" val=1.63
mutation_string=L8N endpoint_name="protein stability index" val=1.62
mutation_string=R12K endpoint_name="protein stability index" val=1.89
mutation_string=L17N endpoint_name="protein stability index" val=1.87
mutation_string=L17T endpoint_name="protein stability index" val=1.88
mutation_string=N23V endpoint_name="protein stability index" val=3.85
mutation_string=N23W endpoint_name="protein stability index" val=2.08
mutation_string=S19Q endpoint_name="protein stability index" val=2.02
mutation_string=I24W endpoint_name="protein stability index" val=2.35
mutation_string=D1F endpoint_name="protein stability index" val=2.27
mutation_string=S3F endpoint_name="protein stability index" val=2.23
mutation_string=H21M endpoint_name="protein stability index" val=1.49
mutation_string=H21E endpoint_name="protein stability index" val=2.06
mutation_string=I6V endpoint_name="protein stability index" val=1.41
mutation_string=W15R endpoint_name="protein stability index" val=1.62
mutation_string=F11H endpoint_name="protein stability index" val=1.95
mutation_string=M22G endpoint_name="protein stability index" val=2.17
mutation_string=D9W endpoint_name="protein stability index" val=2.75
mutation_string=D9V endpoint_name="protein stability index" val=2.94
mutation_string=L17E endpoint_name="protein stability index" val=2.11
mutation_string=N23R endpoint_name="protein stability index" val=1.31
mutation_string=S20G endpoint_name="protein stability index" val=2.92
mutation_string=F5C endpoint_name="protein stability index" val=1.66
mutation_string=G4P endpoint_name="protein stability index" val=1.98
mutation_string=S20T endpoint_name="protein stability index" val=1.85
mutation_string=S19I endpoint_name="protein stability index" val=2.22
mutation_string=S3D endpoint_name="protein stability index" val=2
mutation_string=T14A endpoint_name="protein stability index" val=2
mutation_string=S7D endpoint_name="protein stability index" val=1.47
mutation_string=H2N endpoint_name="protein stability index" val=1.14
mutation_string=R12G endpoint_name="protein stability index" val=2.79
mutation_string=S19W endpoint_name="protein stability index" val=1.87
mutation_string=S19K endpoint_name="protein stability index" val=1.85
mutation_string=I24G endpoint_name="protein stability index" val=1.98
mutation_string=D9H endpoint_name="protein stability index" val=1.87
mutation_string=D1V endpoint_name="protein stability index" val=2.56
mutation_string=S3G endpoint_name="protein stability index" val=1.97
mutation_string=S3A endpoint_name="protein stability index" val=1.92
mutation_string=F5S endpoint_name="protein stability index" val=1.85
mutation_string=L8Q endpoint_name="protein stability index" val=2.01
mutation_string=S7R endpoint_name="protein stability index" val=2.1
mutation_string=E10D endpoint_name="protein stability index" val=1.71
mutation_string=D1L endpoint_name="protein stability index" val=3.93
mutation_string=L17V endpoint_name="protein stability index" val=1.36
mutation_string=F11T endpoint_name="protein stability index" val=1.74
mutation_string=F18N endpoint_name="protein stability index" val=2.12
mutation_string=E10H endpoint_name="protein stability index" val=2.25
mutation_string=W15V endpoint_name="protein stability index" val=2.1
mutation_string=S19E endpoint_name="protein stability index" val=1.3
mutation_string=S20F endpoint_name="protein stability index" val=2.44
mutation_string=D1T endpoint_name="protein stability index" val=2.84
mutation_string=I6L endpoint_name="protein stability index" val=1.65
